Field: koff. Provide a value for each of the binders that follow.
Molecular target: T1, guinea pig recombinant ADAMTS5 (guinea pig)
T1 construct: in house, HEK293, His tag in the entry
T1 chain: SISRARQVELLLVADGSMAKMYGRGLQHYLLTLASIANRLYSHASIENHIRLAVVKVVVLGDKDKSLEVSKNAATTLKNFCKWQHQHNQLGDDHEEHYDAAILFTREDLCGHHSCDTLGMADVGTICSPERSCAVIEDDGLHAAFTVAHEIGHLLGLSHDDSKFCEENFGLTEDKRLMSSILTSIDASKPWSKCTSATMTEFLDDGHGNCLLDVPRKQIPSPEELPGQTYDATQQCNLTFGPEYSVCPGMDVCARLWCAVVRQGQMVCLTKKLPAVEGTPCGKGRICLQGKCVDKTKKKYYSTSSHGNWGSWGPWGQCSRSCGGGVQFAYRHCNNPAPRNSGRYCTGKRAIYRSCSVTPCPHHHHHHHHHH
Assay: SPR off-rate, Biacore T100, ADAMTS5 immobilised, experiment 1
One number for each entry, in s⁻¹.

{"BINDER": "Nanobody 3B02 (VHH, tagged as tested (anti-Flag detection, IMAC); also called 03B02; 3B2) VHH: EVQLVESGGGFVQAGGSLRLSCVASRRTISSGTMGWFRQAPGKEREFVAAIRWSSGMPYYLDSVMDRFTISRDNAKNTVSLQMNSLQPEDTAVYYCAADRSAFRDPSFDVNYEYWGRGTLVTVSS", "koff [s⁻¹]": 0.001}

Items follow; give koff for each.
1. Nanobody 2D07 (VHH, tagged as tested (anti-Flag detection, IMAC); also called 02D07; 2D7) VHH: EVQLVESGGGLVQAGGSLRLSCSFSGPGRTFARYAMGWFRQAPGKNRDFITGISGSGDSTYYVYPMKDRFTISRDNAKNMVYLQMNALKPEDTAVYYCAADREINRIANDKELDFWGQGTLVTVSS
2. Nanobody 2A12 (VHH, tagged as tested (anti-Flag detection, IMAC); also called 02A12) VHH: EVQLVESGGGLVQAGGSLRLSCAASGRTFSSYAMGWFRQAPGKERDFVAGISRSAGRTYYVDSVKGRFTISRDSAKNTVYLQMNRLKPEDTAVYYCAADLDPNRIFSRDEAAYWGQGTLVTVSS
3. Nanobody 11B06 (VHH, tagged as tested (anti-Flag detection, IMAC)) VHH: EVQLVESGGGLVQAGGSLRLSCAASGLTFRRNAMGWFRQAPGKERELLAGINWSGGTTYYVDSVKGRFTISRDNAKNTVDLQMISPKPEDTAVYYCAADGDIGTLVNDENPRYWGQGTLVTVSS

[0.0011, 0.00012, 0.00017]
